recorded.endpoint: pIC50
# pIC50 is unitless: minus log10 of the molar concentration; print number only

Param request: pIC50 | system VEGFR2 (KDR) (Homo sapiens (Human)) | item C=CC(=O)Nc1cc2c(Nc3ccc(Br)cc3F)ncnc2cc1OCCNC(C)=O [Example 18]
7.02

Please report pIC50 with VEGFR2 (KDR) (Homo sapiens (Human)) for item C=CC(=O)Nc1cc2c(Nc3ccc(Br)cc3F)ncnc2cc1OCCNC(=O)NC(C)CC (centres unmarked) [Example 38] .
Sequence (P35968 20-1356): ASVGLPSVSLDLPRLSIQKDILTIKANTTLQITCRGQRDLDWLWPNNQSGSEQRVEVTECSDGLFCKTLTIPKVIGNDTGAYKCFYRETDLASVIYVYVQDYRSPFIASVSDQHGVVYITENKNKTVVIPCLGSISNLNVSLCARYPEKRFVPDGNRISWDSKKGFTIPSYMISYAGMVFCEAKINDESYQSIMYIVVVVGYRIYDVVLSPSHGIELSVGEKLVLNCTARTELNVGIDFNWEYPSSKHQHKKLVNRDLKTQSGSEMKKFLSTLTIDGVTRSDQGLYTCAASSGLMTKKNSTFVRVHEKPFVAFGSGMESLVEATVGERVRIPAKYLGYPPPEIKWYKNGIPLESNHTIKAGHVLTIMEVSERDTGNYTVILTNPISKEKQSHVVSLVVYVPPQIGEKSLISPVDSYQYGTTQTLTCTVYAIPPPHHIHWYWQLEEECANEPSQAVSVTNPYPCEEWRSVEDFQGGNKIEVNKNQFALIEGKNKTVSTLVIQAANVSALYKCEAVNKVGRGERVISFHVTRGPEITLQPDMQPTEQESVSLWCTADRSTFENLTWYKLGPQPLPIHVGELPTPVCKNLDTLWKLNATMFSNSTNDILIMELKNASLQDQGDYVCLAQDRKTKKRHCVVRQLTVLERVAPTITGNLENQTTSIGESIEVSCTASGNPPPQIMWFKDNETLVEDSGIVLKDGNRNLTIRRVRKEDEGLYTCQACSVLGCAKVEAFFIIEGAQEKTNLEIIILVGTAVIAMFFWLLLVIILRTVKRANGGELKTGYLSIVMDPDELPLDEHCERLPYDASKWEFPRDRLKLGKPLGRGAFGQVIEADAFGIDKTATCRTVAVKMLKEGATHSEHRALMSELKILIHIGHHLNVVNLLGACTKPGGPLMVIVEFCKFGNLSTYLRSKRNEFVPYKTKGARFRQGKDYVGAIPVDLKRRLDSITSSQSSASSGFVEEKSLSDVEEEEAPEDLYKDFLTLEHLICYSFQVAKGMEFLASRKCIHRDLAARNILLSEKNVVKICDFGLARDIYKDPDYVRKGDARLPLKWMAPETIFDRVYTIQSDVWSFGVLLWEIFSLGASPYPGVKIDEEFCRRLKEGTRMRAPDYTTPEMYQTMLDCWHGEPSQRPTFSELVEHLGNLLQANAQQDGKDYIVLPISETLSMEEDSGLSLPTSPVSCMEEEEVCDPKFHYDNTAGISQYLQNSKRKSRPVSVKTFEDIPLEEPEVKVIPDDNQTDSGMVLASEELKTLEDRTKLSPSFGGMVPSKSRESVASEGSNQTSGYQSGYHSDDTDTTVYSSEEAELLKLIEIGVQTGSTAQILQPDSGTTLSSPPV
6.49

Give pIC50 for this entry on VEGFR2 (KDR) (Homo sapiens (Human)): C=CC(=O)Nc1cc2c(Nc3ccc(OCc4cccnc4)c(Cl)c3)ncnc2cc1OCCNC(C)=O [Example 130]
6.07

Retrieve pIC50 on VEGFR2 (KDR) (Homo sapiens (Human)); query C=CC(=O)Nc1cc2c(Nc3ccc(Br)cc3F)ncnc2cc1OCCNC(N)=O [Example 24]
6.60

# return pIC50 for C=CC(=O)Nc1cc2c(Nc3ccc(Br)cc3F)ncnc2cc1OCCNC(=S)NC [Example 35] , test system: VEGFR2 (KDR) (Homo sapiens (Human))
6.34

Given C=CC(=O)Nc1cc2c(Nc3ccc(Br)cc3F)ncnc2cc1OCC(CC)NC(C)=O (centres unmarked) [Example 86] , report its pIC50 on VEGFR2 (KDR) (Homo sapiens (Human)).
7.01

# assay system VEGFR2 (KDR) (Homo sapiens (Human)): give pIC50 of C=CC(=O)Nc1cc2c(Nc3ccc(Br)cc3F)ncnc2cc1OCCNC(=O)CN1CC=CC1 [Example 108]
6.31

# return pIC50 for C=CC(=O)Nc1cc2c(Nc3ccc(Br)cc3F)ncnc2cc1OCCNC(=O)CNC [Example 60] , test system: VEGFR2 (KDR) (Homo sapiens (Human))
6.16

Recall the reported pIC50 of CCC(=O)Nc1cc2c(Nc3ccc(Br)cc3F)ncnc2cc1OCCNC(C)=O [Example 77] when tested on VEGFR2 (KDR) (Homo sapiens (Human)).
6.44

Report the value of pIC50 obtained on VEGFR2 (KDR) (Homo sapiens (Human)) for C=CC(=O)Nc1cc2c(Nc3ccc(Br)cc3F)ncnc2cc1OCCNC(=O)C(COC)N(C)C (centres unmarked) [Example 161] .
5.95

Quote VEGFR2 (KDR) (Homo sapiens (Human)) pIC50 for entry C=CC(=O)Nc1cc2c(Nc3ccc(Br)cc3F)ncnc2cc1OCCNC(=O)CN1CCC1 [Example 110] .
6.02

Please report pIC50 with VEGFR2 (KDR) (Homo sapiens (Human)) for item C=CC(=O)Nc1cc2c(Nc3ccc(Br)cc3F)ncnc2cc1OCC1CCN(C(=O)CS(C)(=O)=O)CC1 [Example 3] .
6.97

Name the value of pIC50 reported for C=CC(=O)Nc1cc2c(Nc3ccc(Br)cc3F)ncnc2cc1OCCNC(=O)C(C)CN(C)C (centres unmarked) [Example 74] when tested on VEGFR2 (KDR) (Homo sapiens (Human)).
6.43

Send back VEGFR2 (KDR) (Homo sapiens (Human)) pIC50 of C=CC(=O)Nc1cc2c(Nc3cc(OC)c(Cl)cc3OC)ncnc2cc1OCCNC(C)=O [Example 172] only.
7.05

Please respond with reported pIC50 (system VEGFR2 (KDR) (Homo sapiens (Human))) for C=CC(=O)Nc1cc2c(Nc3ccc(Br)cc3F)ncnc2cc1OC[C@H](C)NC(C)=O [Example 83] .
7.15

// fetch pIC50; item: C=CC(=O)Nc1cc2c(Nc3ccc(Br)c(Cl)c3F)ncnc2cc1OC[C@H](C)NC(=O)CN(C)C [Example 163] ; system: VEGFR2 (KDR) (Homo sapiens (Human))
6.14

Give pIC50 only, for C=CC(=O)Nc1cc2c(Nc3ccc(Br)cc3F)ncnc2cc1OCCNC(=O)COC [Example 44] , using VEGFR2 (KDR) (Homo sapiens (Human)) data.
6.79

Hey, just so you know, these numbers are from patent US8846699B2.
